Test system: Heat shock protein HSP 90 (rabbit reticulocyte lysate; luciferase refolding)
TEST DESCRIPTION: HSP90 inhibitors, primary screen, cell lysate, luminescence (AID 1789);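 further: 0% = DMSO wells and 100% = 60 µM geldanamycin wells; inhibitors lower the luminescence because luciferase stays unfolded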
TEST SETTINGS: 3 h, at 5.6 µM, stronger effect = higher value
Out of some 290,000 compounds screened, about 2,700 (0.93%) were called active. The list comes from a sample in which actives are over-represented; it also holds close analogues and randomly drawn compounds.
MEASURED ATTRIBUTE: inhibition (%)
Lab book: enter the figure in %, no units written.

For orientation, consider the following solved cases.
{"COMPOUND": "CC(C)C[C@H](NC(=O)N1CCn2c1nc1ccccc12)C(=O)NC1CC1", "inhibition (%)": -4.43}
{"COMPOUND": "CCOC(=O)Cn1c(=O)n(Cc2ccc(OC)cc2)c(=O)c2cccnc21", "inhibition (%)": -2.48}
{"COMPOUND": "CCN(C(=O)COc1ccc(C(=O)c2ccccc2)cc1)c1ccccc1", "inhibition (%)": 2.9}
{"COMPOUND": "O=Cc1c(Nc2ccccc2Cl)nc2ccccn2c1=O", "inhibition (%)": 0.05}

Now consider the entry below.
Look up inhibition with Heat shock protein HSP 90 (rabbit reticulocyte lysate; luciferase refolding) for this compound: COCC1CCN(C(=O)CCc2nnc(C3(c4ccc(Cl)cc4)CCC3)o2)C1 (configuration not stated)
-3.96
